procedureText: Human HepG2 cell viability assay in 384 well format
Format: toxicity, cell-based
Set-up: dose 125 nL, time 70.5 hour; concentration not given beside the values
runConditions: HepG2 cells, read-out: Inhibition
Reported cytotoxicity at 70.5 h values are given for each entry in this list.
resultType: cytotoxicity at 70.5 h (%)

{"molecule": "c1csc(CN2CCn3c(Cn4cncn4)cnc3C2)n1", "observed": -17.2}
{"molecule": "COc1cccc(-n2ccc3nc(N4CCCC4)ncc3c2=O)c1", "observed": -4.05}
{"molecule": "c1cnnc(N2CCCC2CNc2ncnc3sccc23)c1 (configuration not stated)", "observed": -7.82}
{"molecule": "COCc1nccc(C2CCCN(Cc3ccc(C#N)cc3F)C2)n1 (configuration not stated)", "observed": -1.86}
{"molecule": "Cc1cc(N2CCC(O)CC2)nc(C)n1", "observed": 1.14}
{"molecule": "Cc1ccc(NC2(C(=O)NCc3c(C)n[nH]c3C)CCCC2)cc1", "observed": -5.51}
{"molecule": "CC(C)(C)[S+]([O-])CCNC(=O)c1csc(NC2CC2)n1 (configuration not stated)", "observed": 12.6}
{"molecule": "Cc1nc(C)c(CCNC(=O)NC2CC(=O)N(C(C)(C)C)C2)s1 (configuration not stated)", "observed": -5.16}
{"molecule": "CC(C)Cc1cc(CC2(NCc3ccccc3Cl)COC2)no1", "observed": 4.27}
{"molecule": "c1cnc2c(CN3CCCCC3c3ccncn3)cnn2c1 (configuration not stated)", "observed": -8.22}
{"molecule": "CNC(=O)NCC1CCC2(CCN(c3ncccn3)CC2)CO1 (configuration not stated)", "observed": -3.53}
{"molecule": "CN(C)Cc1ccnc(C2CN(CCc3ccccc3)CCO2)n1 (configuration not stated)", "observed": 17.9}

* * *

procedureText: Human HepG2 cell viability assay in 384 well format
Assay type: toxicity, cell-based
Set-up: dose 125 nL, time 70.5 hour; concentration not given beside the values
runConditions: HepG2 cells, read-out: Inhibition

{"compound": "CC(C)C(C)NC(=O)c1cccn1Cc1cccnc1 (centres undefined)", "cytotoxicity at 70.5 h [%]": -0.474}
{"compound": "Cc1cnn(Cc2cc(F)ccc2F)c1NC(=O)NC1CC1", "cytotoxicity at 70.5 h [%]": -7.32}
{"compound": "O=C(O)C(c1cccc2c1OCC2)N1CCC(N2CCSCC2)CC1 (centres undefined)", "cytotoxicity at 70.5 h [%]": 0.963}
{"compound": "O=C1CC(c2ccccc2C(F)(F)F)c2sc(N3CCOCC3)nc2N1 (centres undefined)", "cytotoxicity at 70.5 h [%]": -13.5}
{"compound": "Cc1csc(N2CCCN(C(=O)c3ccoc3C)CC2)n1", "cytotoxicity at 70.5 h [%]": -4.74}
{"compound": "CSc1ncccc1C(=O)NCCC(O)c1cc(C)oc1C (centres undefined)", "cytotoxicity at 70.5 h [%]": -1.76}
{"compound": "CC(C1CC1)N(C)Cc1nnc(-c2ccc(Br)s2)o1 (centres undefined)", "cytotoxicity at 70.5 h [%]": -2.75}
{"compound": "Cc1cc2c(cc1Cl)C=CC1(CCN(C(=O)N3CCOCC3)CC1)O2", "cytotoxicity at 70.5 h [%]": 22}
{"compound": "COc1ncccc1CN1CCc2[nH]cnc2C1CCSC (centres undefined)", "cytotoxicity at 70.5 h [%]": 25.1}
{"compound": "Cn1c(CN2CCOC(Cn3cncn3)C2)nc2ccccc21 (centres undefined)", "cytotoxicity at 70.5 h [%]": 13.6}
{"compound": "CCC(C)C(=O)NCc1cc(Br)c(OC)c(OC)c1 (centres undefined)", "cytotoxicity at 70.5 h [%]": -6.76}
{"compound": "CS(=O)(=O)NCC1CCCN(C(=O)COCC2CC2)C1 (centres undefined)", "cytotoxicity at 70.5 h [%]": -22.4}
{"compound": "Cc1ccc(-n2ccc3nc(N4CCCC4)ncc3c2=O)cc1C", "cytotoxicity at 70.5 h [%]": 9.54}
{"compound": "COc1ncnc(N)c1CNCCc1ccc(-n2cccn2)cc1", "cytotoxicity at 70.5 h [%]": -1.5}
{"compound": "Cc1cnn(CC2CN(Cc3cccc(OCC(N)=O)c3)CCO2)c1 (centres undefined)", "cytotoxicity at 70.5 h [%]": -5.97}
{"compound": "Cc1ccc(S(=O)(=O)Nc2cccnc2O)cc1C", "cytotoxicity at 70.5 h [%]": -0.331}
{"compound": "O=C(CCn1cc(Cl)cn1)N1CCCC(O)(CO)CC1 (centres undefined)", "cytotoxicity at 70.5 h [%]": -4.26}
{"compound": "O=C(c1cc(C2CC2)on1)N1C[C@H]2CC[C@](O)(c3ccccc3F)[C@H]2C1", "cytotoxicity at 70.5 h [%]": -0.256}
{"compound": "Cc1cc(NC(=O)CNC(C)(C)c2ccc3c(c2)OCCO3)no1", "cytotoxicity at 70.5 h [%]": 2.35}
{"compound": "OC1(CNc2ccc(-c3nc(C4CC4)no3)cn2)CCCCC1", "cytotoxicity at 70.5 h [%]": 22}
{"compound": "O=C(c1cncs1)N1CCCC1c1ccn[nH]1 (centres undefined)", "cytotoxicity at 70.5 h [%]": -3.39}
{"compound": "CCn1c(CN(C)Cc2cnc(C)s2)nc2c(F)cccc21", "cytotoxicity at 70.5 h [%]": -24.5}
{"compound": "CN(Cc1cncnc1)[C@@H]1CN(C(=O)c2ccco2)[C@@H]2CCCO[C@H]12", "cytotoxicity at 70.5 h [%]": -3.82}
{"compound": "COc1ccc(N(c2ccccc2)c2ccc(C(=O)O)s2)cc1", "cytotoxicity at 70.5 h [%]": -0.368}

* * *

Measured cytotoxicity at 70.5 h, listed per entry for reference.
procedureText: Human HepG2 cell viability assay in 384 well format
Assay type: toxicity, cell-based
Set-up: dose 125 nL, time 70.5 hour; concentration not given beside the values
runConditions: HepG2 cells, read-out: Inhibition

{"compound": "Cc1cc(C)nc(Nc2ccc(C3CCCCN3)cn2)n1 (configuration not stated)", "units": "%", "cytotoxicity at 70.5 h": 18.8}
{"compound": "CC(C)(C)C(=O)NCCn1ccc(-c2ccncc2)n1", "units": "%", "cytotoxicity at 70.5 h": -4.99}
{"compound": "CCNC(=O)NC(C)c1nc(-c2ccc(Br)cc2)no1 (configuration not stated)", "units": "%", "cytotoxicity at 70.5 h": -8.74}
{"compound": "O=C(CSCc1ccncc1)NCc1csc(Br)c1", "units": "%", "cytotoxicity at 70.5 h": -8.77}
{"compound": "COc1ncccc1-c1ncccc1NC(=O)C(C)C", "units": "%", "cytotoxicity at 70.5 h": -6.31}
{"compound": "CC1(C)CCN(Cc2ccccc2-c2nc(C(C)(C)C)cc(=O)[nH]2)C1", "units": "%", "cytotoxicity at 70.5 h": -4.72}
{"compound": "COc1cc(CCC(=O)NCC2CCCN2C)ccc1OCC(F)(F)F (configuration not stated)", "units": "%", "cytotoxicity at 70.5 h": -7.43}
{"compound": "CC(C)(C)c1cn(C[C@H]2CC3CCN2C[C@@H]3C(=O)NC2CC2)nn1 (some centres not stated)", "units": "%", "cytotoxicity at 70.5 h": 10.5}
{"compound": "Cc1c(C)n(Cc2ccncc2)c2nc3c(c(N)c12)CCCCCC3", "units": "%", "cytotoxicity at 70.5 h": 30.2}
{"compound": "Nc1nc(NCCO)cc(N2CCc3c([nH]c4ccccc34)C2)n1", "units": "%", "cytotoxicity at 70.5 h": -7.97}
{"compound": "Cc1n[nH]cc1CNC1CCN(c2ccc(F)cc2)CC1", "units": "%", "cytotoxicity at 70.5 h": -8.94}
{"compound": "Cc1cc(NCCOCCS(C)(=O)=O)nc2ccccc12", "units": "%", "cytotoxicity at 70.5 h": 1.59}
{"compound": "Cc1noc(C2CCN(C(=O)c3cccs3)CC2)n1", "units": "%", "cytotoxicity at 70.5 h": -9.06}
{"compound": "COc1cnc(N2C[C@H](CO)C[C@H](CN3CCOCC3)C2)nc1", "units": "%", "cytotoxicity at 70.5 h": -2.01}
{"compound": "O=C(CCN1CCSCC1c1ccccc1)N1CCOCC1 (configuration not stated)", "units": "%", "cytotoxicity at 70.5 h": 7.46}
{"compound": "Cc1nn(C)c2ncc(NC(=O)N3CCNC(=O)C3)cc12", "units": "%", "cytotoxicity at 70.5 h": -6.74}
{"compound": "CC(NC(=O)Cn1cc(-c2ccccc2)cn1)C1CC1 (configuration not stated)", "units": "%", "cytotoxicity at 70.5 h": -6.64}
{"compound": "CCCn1ccnc1CNC(=O)C1COc2cc(OC)ccc2C1 (configuration not stated)", "units": "%", "cytotoxicity at 70.5 h": -5.58}
{"compound": "Cc1nc(CN2C[C@@H](NS(=O)(=O)N(C)C)[C@H](C(C)C)C2)cs1", "units": "%", "cytotoxicity at 70.5 h": -1.78}
{"compound": "CC(C)C1CN(S(C)(=O)=O)CCCN1Cc1ccc(F)cc1 (configuration not stated)", "units": "%", "cytotoxicity at 70.5 h": -3.17}
{"compound": "CCOc1ccc(Cl)c(C(=O)N2CCN(CC(C)(C)O)CC2)n1", "units": "%", "cytotoxicity at 70.5 h": -12.6}
{"compound": "CC(=O)N1CCc2c(nc(N(C)C)nc2N(C)CC2CCCO2)C1 (configuration not stated)", "units": "%", "cytotoxicity at 70.5 h": -6.61}
{"compound": "Cc1csc(C(C#N)C(=O)NCc2ccccc2)n1 (configuration not stated)", "units": "%", "cytotoxicity at 70.5 h": -6.71}
{"compound": "CCn1ccnc1-c1nc2cc(S(=O)(=O)N3CCCC3)ccc2n1C", "units": "%", "cytotoxicity at 70.5 h": -3.32}
{"compound": "CC(C)N1CCCC1c1csc(N)n1 (configuration not stated)", "units": "%", "cytotoxicity at 70.5 h": -1.44}
{"compound": "Cc1cc(C)n(Cc2cccc(C(=O)NCCN3CCOCC3)c2)n1", "units": "%", "cytotoxicity at 70.5 h": -6.51}
{"compound": "O=C(c1cccn1Cc1cccs1)N1CCN2CCCCC2C1 (configuration not stated)", "units": "%", "cytotoxicity at 70.5 h": 4.27}
{"compound": "O=C(c1cc[nH]n1)N1CCCC1c1cc(Nc2ccccn2)n[nH]1 (configuration not stated)", "units": "%", "cytotoxicity at 70.5 h": -11.2}
{"compound": "CC(=O)N1CCN(C(=O)c2[nH]nnc2Nc2ccccc2F)CC1", "units": "%", "cytotoxicity at 70.5 h": 8.05}
{"compound": "Cc1cc(CN(C)C(=O)NCc2ccnc(SC(C)(C)C)c2)no1", "units": "%", "cytotoxicity at 70.5 h": -9.52}
{"compound": "O=C(NCc1ccccc1)c1nc2c(o1)CN(C(=O)c1cccnc1)C2", "units": "%", "cytotoxicity at 70.5 h": -9}
{"compound": "Cc1ccc([C@@H]2CN(C(=O)CCc3ccco3)C[C@H]2N(C)C)cc1", "units": "%", "cytotoxicity at 70.5 h": 0.00383}
{"compound": "O=C(CCCC(=O)NCc1cccc(Br)c1)NCCN1CCCC1", "units": "%", "cytotoxicity at 70.5 h": 1.2}
{"compound": "CC(C)(C)n1ncc2c1CCCC2NCc1cccc2c1OCCO2 (configuration not stated)", "units": "%", "cytotoxicity at 70.5 h": -7.2}
{"compound": "Cc1cc(C(=O)NCCN2CCN(S(C)(=O)=O)CC2)no1", "units": "%", "cytotoxicity at 70.5 h": -10.9}
{"compound": "CC(C(=O)N(C)Cc1ccc(Br)o1)n1cccn1 (configuration not stated)", "units": "%", "cytotoxicity at 70.5 h": -4.49}
{"compound": "CCC(C(=O)NCc1ccncc1)N(c1cccc(C)c1)S(C)(=O)=O (configuration not stated)", "units": "%", "cytotoxicity at 70.5 h": -9.28}
{"compound": "CC(C)n1cc(C(=O)NC2CN3CCC2CC3)c2ccccc21 (configuration not stated)", "units": "%", "cytotoxicity at 70.5 h": -20.2}
{"compound": "CCn1c(CC2CCNCC2)nn(Cc2ccc(C(=O)NC)o2)c1=O", "units": "%", "cytotoxicity at 70.5 h": -11.7}
{"compound": "COc1ccc(S(=O)(=O)NCCCc2ccc(N(C)C)cc2)cc1Cl", "units": "%", "cytotoxicity at 70.5 h": -3.09}
{"compound": "CO[C@H]1CCN(C2CCC2)[C@@H]2CN(Cc3ccncc3)C[C@H]12", "units": "%", "cytotoxicity at 70.5 h": -0.868}
{"compound": "CCn1ccc(-c2cc(C(=O)O)n3nc(C(F)(F)F)c(Br)c3n2)n1", "units": "%", "cytotoxicity at 70.5 h": -3.3}
{"compound": "CCc1n[nH]c(C2CN(CC(=O)N(C)Cc3ccco3)CCO2)n1 (configuration not stated)", "units": "%", "cytotoxicity at 70.5 h": -11.1}
{"compound": "Cc1nc2cc(C(=O)N3C[C@@H](C(=O)O)[C@H](C4CC4)C3)ccc2[nH]1", "units": "%", "cytotoxicity at 70.5 h": -3.58}
{"compound": "Cc1nc(N2CCN(C)CC2)ncc1C(=O)N1CCCCCC1", "units": "%", "cytotoxicity at 70.5 h": -1.12}
{"compound": "Cc1cccc(-c2nc(CN3CCCCC3Cn3cncn3)no2)c1 (configuration not stated)", "units": "%", "cytotoxicity at 70.5 h": -4.62}
{"compound": "CN1C[C@@H](NC(=O)CC(C)(C)C)C[C@H]1c1nc(-c2cnccn2)no1", "units": "%", "cytotoxicity at 70.5 h": -0.594}
